# experimental_protocol: Pharmacokinetics in Sprague Dawley Rats
# Format: in vivo
# experimental_parameters: Sprague-Dawley, plasma; rat, IV 1 mg/kg
reported_property: clearance (mL/min/kg)

[a] C[C@H]1CCN1c1nc(-c2ccc(C(=O)N3C[C@@H](O)[C@@H](O)C3)cc2)cc(C(F)(F)F)n1
[b] C[C@H]1CCN1c1nc(-c2ccc(C(=O)NC(CO)(CO)CO)cc2)cc(C(F)(F)F)n1
Hi! Which is lower in terms of clearance, the first one a or the second one b ? # answer = label of selected item a

----------
# experimental_protocol: Pharmacokinetics in Dogs
# Assay type: in vivo, Beagle Dogs
# experimental_parameters: beagle, plasma; dog, fed; IV 1 mg/kg
reported_property: clearance (mL/min/kg)

[a] C[C@H]1CCN1c1nc(-c2ccc(C(=O)NC(CO)(CO)CO)cc2)cc(C(F)(F)F)n1 [Example 3]
[b] C[C@H]1CCN1c1nc(-c2ccc(C(=O)N3C[C@@H](O)[C@@H](O)C3)cc2)cc(C(F)(F)F)n1 [Example 2]
Hi! Which is lower in terms of clearance, the first one a or the second one b ? # answer = label of selected item b
